Item-by-item account of pEC50
# Test system: HT22 cells
# assay: Glutamate challenge of HT22 neuronal cells, viability
# Format: cell-based
# condition-parameters: Mus musculus, HT-22; HT22 cells exposed to glutamate stress, nonlinear regression, n=3/point; read-out: EC50 of neuroprotection
# Protocol: An in vitro assay to recapitulate key aspects of the acute KA model was established. In this case, unconcentrated ACM was applied to the glutamate sensitive neuronal cell line HT22 (66, 67). Glutamate challenge of 5 mM was titrated to induce 60-80% cell death (ie: 20-40% survival). […] The media was concentrated for proteomic analyses. […] There is no established receptor for LXB4. […] Therefore, it was assessed whether specific receptor antagonists for FPR2 or GPR18 could block LXB4 mediated protection. […]
// pEC50: -log10(molar conc.)

CCCCC[C@H](O)[C@H](O)/C=C/C=C/C=C\C=C\[C@@H](O)CCCC(=O)O = 7.41

Below: the item to evaluate.
Measured pEC50, CCCCC[C@H](O)/C=C/C=C\C=C\C=C\[C@@H](O)[C@@H](O)CCCC(=O)O : 6.20

The values you see were collected from patent US11439615B2.
